Ok so here's the combined literature set: pIC50 for C-C chemokine receptor type 1 (Homo sapiens, UniProt P32246).
pIC50: −log10 of the molar value.
quantity.kind: pIC50

INSERT INTO measurements (mol, measured_value) VALUES
  ('Cc1nnc([C@H]2CCCN2C(=O)Nc2cccc(S(N)(=O)=O)c2)n1Cc1ccc(Cl)cc1', '5.30 to 6.30'),
  ('COc1cc(C2(O)CCN(C(=O)COc3ccc(Cl)cc3)CC2)ccc1Cl', '> 6.00'),
  ('CC1(C)CN(C(=O)[C@H]2CCC[C@H]2NC(=O)c2cccc(C(N)=O)c2)CC[C@]1(O)c1ccc(Cl)cc1', 8.74),
  ('O=C(N[C@H]1CCc2ccccc2C1)N1CCC[C@@H]1c1nncn1Cc1ccc(Cl)cc1', '> 7.30'),
  ('CCc1nnc([C@H]2CCCN2C(=O)Nc2ccc(Cl)cc2F)n1Cc1ccc(Cl)cc1', '> 7.30'),
  ('O=C(N[C@H]1CCOc2cc(Cl)ccc21)N1CCC[C@@H]1c1ncnn1Cc1ccc(Cl)cc1', '6.30 to 7.30'),
  ('Cc1nnc([C@H]2CCCN2C(=O)N[C@H]2CCOc3cc(Cl)ccc32)n1Cc1ccc(Cl)cc1', '> 7.30'),
  ('CC[C@H](NC(=O)N1CCC[C@@H]1c1nnc(C)n1Cc1ccc(Cl)cc1)c1ccc(Cl)c(Cl)c1', '> 7.30');

* * *

pIC50: −log10 of the molar value.
Here, molecules appear alongside pIC50 reported for C-C chemokine receptor type 1 (Homo sapiens, UniProt P32246) in the literature.
quantity.kind: pIC50

INSERT INTO assay_data (molecule, measured_value) VALUES
  ('Cc1nnc([C@H]2C[C@@H](O)CN2C(=O)N[C@H]2CCOc3cc(C#N)ccc32)n1Cc1ccc(Cl)cc1', '> 7.30'),
  ('Cc1cc(Cl)ccc1NC(=O)N1CCC[C@@H]1c1nnc(C)n1Cc1ccc(Cl)cc1', '> 7.30'),
  ('CC[C@H](NC(=O)N1CCC[C@@H]1c1nnc(C)n1Cc1ccc(Cl)cc1)c1c(C)noc1C', '> 7.30'),
  ('Cc1nnc([C@H]2CCCN2C(=O)Nc2c(Cl)ncnc2Cl)n1Cc1ccc(Cl)cc1', '> 7.30'),
  ('Cc1cc(C)c(C(N)=O)cc1NC(=O)N1CCC[C@@H]1c1nnc(C)n1Cc1ccc(Cl)cc1', '6.30 to 7.30'),
  ('O=C(N[C@H]1CCOc2c(F)cccc21)N1CCC[C@@H]1c1ncncc1Cc1ccc(Cl)cc1', '6.30 to 7.30'),
  ('CC1(C)CN(C(=O)[C@H]2CC3(CC[C@H]2NC(=O)c2ccccc2)OCCO3)CC[C@]1(O)c1ccc(Cl)cc1', 5.97),
  ('Cc1nc(C(F)(F)F)ccc1NC(=O)N1CCC[C@@H]1c1ncnn1Cc1ccc(Cl)cc1', '6.30 to 7.30'),
  ('O=C(N[C@H]1CCCc2cc(C(F)(F)F)ccc21)N1CCC[C@@H]1c1ncnn1Cc1ccc(Cl)cc1', '> 7.30'),
  ('CC[C@H](NC(=O)N1CCC[C@@H]1c1nc(C)nn1Cc1ccc(Cl)cc1)c1c(C)cc(C(F)(F)F)cc1C', '5.30 to 6.30'),
  ('Cc1c(Cl)c(C(F)(F)F)nn1CC(=O)N1CCC(O)(c2ccc(Cl)c(C(F)(F)F)c2)CC1', '4.60 to 6.00'),
  ('O=C(NC1CCS(=O)(=O)c2ccccc21)N1CCC[C@@H]1c1ncnn1Cc1ccc(Cl)cc1 (stereo partly drawn)', '5.30 to 6.30'),
  ('CNC(=O)c1ccc(NC(=O)N2CCC[C@@H]2c2nnc(C)n2Cc2ccc(Cl)cc2)c(C)c1', '6.30 to 7.30'),
  ('CCc1nnc([C@H]2CCCN2C(=O)Nc2c(C)noc2-c2ccccc2)n1Cc1ccc(Cl)cc1', '> 7.30'),
  ('CCc1nnc([C@H]2CCCN2C(=O)Nc2ccc(C(F)(F)F)nc2C)n1Cc1ccc(Cl)cc1', '> 7.30');
